- System: atopic dermatitis-induced Nc/Nga mouse
- MEASUREMENT DESCRIPTION: SCORAD clinical skin score, DNFB-induced atopic dermatitis in Nc/Nga mouse
- Type: in vivo
- Parameters: key: 0 = no symptom, 1 = mild, 2 = moderate, 3 = severe
- PROTOCOL CONDITIONS: Mouse 2; DNFB Nc/Nga; 0.1% topical day 15-21; graded per Example 4
Parameter Mouse 2 Abrasion: see the listing below.
Reply with just the number.

Exam item: Assign Mouse 2 Abrasion to the following record: CC(=O)N[C@@H](CCC(=O)N[C@@H](C)C(=O)O)C(=O)O [N-acetyly-glutammyl-L-alanine, N-acetyl-γ-glutammyl-L-alanine]
Marked response: 1

Exam item: Assign Mouse 2 Abrasion to the following record: CCCCCCCCCCCCCCCC(=O)N[C@@H](C)C(=O)O [N-palmitoyl L-alanine, N-palmitoyl-L-alanine]
Marked response: 1

Exam item: Assign Mouse 2 Abrasion to the following record: CCCC(=O)N[C@@H](Cc1c[nH]c2ccccc12)C(=O)O [N-butyryl L-tryptophan, N-butyryl-L-tryptophan]
Marked response: 2

Exam item: Assign Mouse 2 Abrasion to the following record: CCCCCCCC/C=C\CCCCCCCC(=O)N[C@@H](Cc1c[nH]c2ccccc12)C(=O)O [N-oleoyl-L-tryptophan]
Marked response: 2
